Target: T1, autolytically stable caspase-1 variant (D381 E) (UniProt P29466 120-404, limits assumed)
T1 sequence (looked up): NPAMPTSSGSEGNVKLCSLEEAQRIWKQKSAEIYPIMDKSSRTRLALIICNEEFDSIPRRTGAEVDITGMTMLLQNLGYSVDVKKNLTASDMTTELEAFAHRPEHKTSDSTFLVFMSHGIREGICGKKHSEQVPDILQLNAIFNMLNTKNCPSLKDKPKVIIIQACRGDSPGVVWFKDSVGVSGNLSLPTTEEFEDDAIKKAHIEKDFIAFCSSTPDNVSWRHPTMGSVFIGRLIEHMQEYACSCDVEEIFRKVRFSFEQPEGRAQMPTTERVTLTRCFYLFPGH
Assay: cell-based or functional assay
Numbered stars: 1 amine (or outer) side, 2 acyl side, 3 side chain; on linkers, the order of the positions; unused ones are H or OH. Square brackets hold non-standard residues; d marks the D form. * marks the point of attachment. AAsp = aza-Asp, O=C(N(CC(=O)[*:3])N[*:1])[*:2]; azaAsp = O=C(N(CC(=O)[*:3])N[*:1])[*:2]; PhPr = N-terminal cap as named (PhPr); Hydrocinnamoyl = O=C(CCc1ccccc1)*; Cbz = O=C(OCc1ccccc1)*; NHBn = c1ccc(CN*)cc1
Recorded k2 for the following binders
Readout type: k2 (M⁻¹ s⁻¹)

{"Binder": "Hydrocinnamoyl-Val-Ala-[AAsp]-{(R,R)‑EP‑CONHCH2CH2Ph} [PhPr-Val-Ala-AAsp-(R,R)-EP-CONHCH2CH2Ph]", "Numeric result": 950}
{"Binder": "Cbz-IET[azaAsp]-{(2S,3S)‑EP‑COOEt} [Cbz-Ile-Glu-Thr-AAsp-(2S, 3S)-EP-COOEt]", "Numeric result": 12400}
{"Binder": "Hydrocinnamoyl-Val-Ala-[AAsp]-{(R,R)‑EP‑CONHCH2CH(OH)Ph} [PhPr-Val-Ala-AAsp-(R,R)-EP-CONHCH2CH(OH)Ph]", "Numeric result": 400}
{"Binder": "PhPr-Val-Ala-[AAsp]-{(S,S)‑EP‑CO-Ala-NHBn} [PhPr-Val-Ala-AAsp-(S,S)-EP-CO-Ala-NHCH2Ph]", "Numeric result": 13400}
